Reference source for all entries: patent US6136814A

# method_summary: aqueous solubility
# Format: physicochemical
# condition_notes: water, determined experimentally
result_type: solubility (mg/mL)
Quick note: give the figure in mg/mL, leave out the unit.

get_value(item= Nc1nc2c(ncn2COCCO)c(=O)[nH]1 [acyclovir sodium] , readout=solubility) returns 644
